Molecular target: NPM-ALK-BaF3 (Homo sapiens, UniProt Q9UM73)
Construct: expressed in transfected cells; host or cells: Ba/F3 cells; the other entry of the earlier key: NPM1 (P06748, Nucleophosmin)
Sequence (Q9UM73 with tags, fused parts or gaps): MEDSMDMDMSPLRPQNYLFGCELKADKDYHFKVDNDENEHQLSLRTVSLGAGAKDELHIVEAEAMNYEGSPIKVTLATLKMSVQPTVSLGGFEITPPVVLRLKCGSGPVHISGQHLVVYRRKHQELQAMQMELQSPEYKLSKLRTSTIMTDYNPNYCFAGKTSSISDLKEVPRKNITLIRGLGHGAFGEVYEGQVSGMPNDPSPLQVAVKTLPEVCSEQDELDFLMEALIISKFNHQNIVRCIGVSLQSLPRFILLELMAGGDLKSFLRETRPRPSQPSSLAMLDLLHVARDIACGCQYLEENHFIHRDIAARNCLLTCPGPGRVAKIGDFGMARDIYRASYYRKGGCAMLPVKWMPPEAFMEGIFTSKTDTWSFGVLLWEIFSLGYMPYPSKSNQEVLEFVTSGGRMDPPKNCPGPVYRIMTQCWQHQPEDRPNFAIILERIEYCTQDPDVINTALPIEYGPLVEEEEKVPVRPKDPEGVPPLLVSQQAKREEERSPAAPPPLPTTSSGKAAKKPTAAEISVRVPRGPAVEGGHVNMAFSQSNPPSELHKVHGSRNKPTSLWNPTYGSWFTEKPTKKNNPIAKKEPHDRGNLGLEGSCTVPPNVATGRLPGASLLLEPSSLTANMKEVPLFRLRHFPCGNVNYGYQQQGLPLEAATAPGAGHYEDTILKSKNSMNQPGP
Assay: Growth inhibition of NPM-ALK transformed BaF3 cells (MTS)
Format: cell-based
Details: 48 hours, Table 12
REPORTED ENDPOINT: IC50 (nM)
Give the value, in units of nM, as a plain number.

Which measured IC50 value corresponds to CC(C)Sc1ccccc1Nc1nc(Nc2ccc(N3CCC(O)CC3)cc2)nc2ccn(C)c12 [IIB-3] ?
653

Which measured IC50 value corresponds to CCOc1cc(C(=O)N2CCC(N3CCN(C)CC3)CC2)ccc1Nc1nc(Nc2ccccc2SC)c2c(ccn2C)n1 [IIA-5] ?
519

Which measured IC50 value corresponds to COC(=O)c1ccccc1Oc1nc(Nc2ccc(N3CCC(N4CCN(C)CC4)CC3)cc2OC)nc2ccn(C)c12 [IIN-2] ?
2330

Which measured IC50 value corresponds to CC(C)S(=O)(=O)c1ccccc1Nc1nc(Nc2ccc(N3CCC(O)CC3)cc2)nc2ccn(C)c12 [IID-3] ?
6990

Which measured IC50 value corresponds to COC(=O)c1cccc(Nc2nc(Nc3ccc(N4CCN(C)CC4)cc3OC)nc3ccn(C)c23)c1 [IIH-1] ?
1750

Which measured IC50 value corresponds to CSc1ccccc1Nc1nc(Nc2ccc(S(N)(=O)=O)cc2)nc2ccn(C)c12 [IIA-4] ?
2700

Which measured IC50 value corresponds to CC(C)S(=O)(=O)c1ccccc1CNc1nc(Nc2ccc(N3CCN(C)CC3)cc2)nc2ccn(C)c12 [IIL-5] ?
848

Which measured IC50 value corresponds to CC(C)Sc1ccccc1CNc1nc(Nc2ccc(N3CCC(O)CC3)cc2)nc2ccn(C)c12 [IIJ-2] ?
1610

Which measured IC50 value corresponds to COc1cc(N2CCN(C)CC2)ccc1Nc1nc(NCc2ccccc2S(=O)(=O)C(C)C)c2c(ccn2C)n1 [IIL-1] ?
1350
